target: human PCSK9 (human, UniProt Q8NBP7 31-692); assay: cell-based or functional assay
Sequence (Q8NBP7 31-692 limits assumed): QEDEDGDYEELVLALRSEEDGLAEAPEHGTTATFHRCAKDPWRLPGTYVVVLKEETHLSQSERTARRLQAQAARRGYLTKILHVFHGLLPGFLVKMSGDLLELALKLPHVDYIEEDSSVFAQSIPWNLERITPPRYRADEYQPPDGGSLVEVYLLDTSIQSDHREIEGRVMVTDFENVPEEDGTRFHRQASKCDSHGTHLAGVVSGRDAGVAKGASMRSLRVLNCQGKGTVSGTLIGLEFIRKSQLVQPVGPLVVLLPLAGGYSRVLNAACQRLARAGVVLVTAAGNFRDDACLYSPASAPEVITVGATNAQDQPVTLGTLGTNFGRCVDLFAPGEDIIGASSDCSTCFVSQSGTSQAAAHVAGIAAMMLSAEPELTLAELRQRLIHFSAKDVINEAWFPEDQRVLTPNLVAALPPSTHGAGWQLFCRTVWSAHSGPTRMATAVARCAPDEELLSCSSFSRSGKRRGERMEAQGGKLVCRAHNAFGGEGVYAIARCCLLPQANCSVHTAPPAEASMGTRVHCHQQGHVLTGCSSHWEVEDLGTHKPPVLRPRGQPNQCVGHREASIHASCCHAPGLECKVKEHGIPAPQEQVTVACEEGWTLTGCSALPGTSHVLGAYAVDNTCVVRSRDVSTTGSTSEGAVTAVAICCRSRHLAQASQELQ
Fab IC50 (nM), inhibition of PCSK9 on LDL uptake values, listed per item
resultType: Fab IC50 (nM), inhibition of PCSK9 on LDL uptake

[
  {
    "binder": "AX210 Fab (Fab, V domains shown) VH: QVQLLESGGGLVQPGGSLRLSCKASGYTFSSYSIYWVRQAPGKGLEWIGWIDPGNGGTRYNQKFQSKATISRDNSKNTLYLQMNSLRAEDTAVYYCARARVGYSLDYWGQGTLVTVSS VL: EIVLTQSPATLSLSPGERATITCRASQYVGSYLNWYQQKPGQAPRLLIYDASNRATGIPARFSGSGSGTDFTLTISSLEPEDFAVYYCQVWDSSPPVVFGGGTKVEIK",
    "result": "26.8 nM"
  },
  {
    "binder": "AX132 Fab (Fab, V domains shown) VH: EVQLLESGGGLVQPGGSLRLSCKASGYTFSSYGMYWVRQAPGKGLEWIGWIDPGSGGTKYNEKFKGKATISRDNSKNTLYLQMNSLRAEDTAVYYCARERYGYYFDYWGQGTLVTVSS VL: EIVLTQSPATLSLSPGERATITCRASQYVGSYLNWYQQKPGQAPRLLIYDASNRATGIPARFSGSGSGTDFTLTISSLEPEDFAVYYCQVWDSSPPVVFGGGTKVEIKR",
    "result": "62.2 nM"
  },
  {
    "binder": "AX213 Fab (Fab, V domains shown) VH: QVQLLESGGGLVQPGGSLRLSCKASGYTFSRYGINWVRQAPGKGLEWIGRIDPGNGGTRYNEKFKGKATISRDNSKNTLYLQMNSLRAEDTAVYYCARANDGYSFDYWGQGTLVTVSS VL: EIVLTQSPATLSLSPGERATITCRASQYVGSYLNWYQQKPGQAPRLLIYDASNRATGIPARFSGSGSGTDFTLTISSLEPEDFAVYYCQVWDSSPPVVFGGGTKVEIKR",
    "result": "14.7 nM"
  }
]
